Hello, the source for this data is the nanobody polyreactivity screen of Harvey et al. (2022), in case you need it.

# Assay: yeast display, Sf9 membrane polyspecificity reagent, FACS + sequencing; frameworks hold sequencing errors
Measure: polyreactivity (PSR sort gate)

QVQLVESGGGLVQAGGRLRLSCAASGFIFAYYAMGWYRQAPGKERELVAAITIDGSTNYADSVKGRFTISRDNAKNTVYLQMNSLKPEDTAVYYCAAADHPPVCYGYWGQGTQVTVSS : low polyreactivity
QVQLVESGGGLVQAGGSLRLSCAASGFTFHYYDMGWYRQAPGKERELVATISQSGTSTYYADSVKGRFTISRDNAKNSVYLQMHSLKPEDTAVYYCAADYIGYWYGYYWYEYWGQGTQVTVSS : low polyreactivity

====

# Assay: yeast display, Sf9 membrane polyspecificity reagent, FACS + sequencing; frameworks hold sequencing errors
Measure: polyreactivity (PSR sort gate)

QVQLVESGGGLVQAGGSLRLSCAASGSIFGGYDMGWYRQAPGKESELVASISGSSSTYYADSVKGRFTISRDNAKNTVYFQMNSLKPEDTAVYYCAVDYHQAWPSADYWFEYDYWGQGTQVTVSS : low polyreactivity
QVQLVESGGGLVQAGGSLRLSCAASGSTFYAYVMGWYRQAPGKERELVAGISWSGGSTYYADSVKGRFTISRDNAKNTVYLQMNSLKPEDTAVYFFAADYYNTYGYDYWGQGTQVTVSS : low polyreactivity

====

# Assay: yeast display, Sf9 membrane polyspecificity reagent, FACS + sequencing; frameworks hold sequencing errors
Measure: polyreactivity (PSR sort gate)

QVQLVESGVGLVQAGGSLRLSCAASGFIFHRNAMGWYRQAPGKERELVASITKRGGNTYYADSVKGRFTISRDNAKNTVYLQMNSLKPEDTAVYYCATHLWGWDWKRDYWGQGTQVTVSS : high polyreactivity
QFQLVESGGGLVQAGGSLRLSCAASGSTIPRNAMGWYRQAPGKERELVAVITGSGGSTYYADSVKGRFTISRDNAKNTVYLQMNSLKPEDTAVYYCAAKYRFYGFDYWGQGTQLTVSS : high polyreactivity

====

# Assay: yeast display, Sf9 membrane polyspecificity reagent, FACS + sequencing; frameworks hold sequencing errors
Measure: polyreactivity (PSR sort gate)

QVQLVESGGGLVQAGGSLRLSCAASGLTLAPYAMGWYRQAPGKERELVAAITFSGGSTYYADSVKGRLSISRDNAKNTVYLQMNSLKPEDTAVYYCARDTWAYKNGYPYYSWGQGTQVTVSS : low polyreactivity
QVQLVESGGRLVQAGGSLRISCAASGRTFRYYAKGWYRQAPGKERELVAAISSRGTRTYYADSVKGRFTISRDNAKNTGYLQMNSLKPEDTAVYYCATRYYQELAYDFWGQGTQVIVSS : high polyreactivity
QVQLVESGGGLVQAGGSLRISCADCGSIFEVNAMGWYRPAPGTERELVAAISSGDRTNYADSVKGRFTISRDNAKNTVYLQMNSLKPEDTAVYYCNKGAAWRPFFGPYYNYEYWGQGTQVTVSS : high polyreactivity
QVQLVESGGGLVQAGGSLRLSCAASGRTFVLYTMGRYRQAPGKERELVAVGSTYYADSVKGRFTISRDNAKNTVYLQMNSLKPEDTAVYYCNKPGNYVWRRSWDFDYWGQGTQVTVSS : high polyreactivity
QVQLVESGGGLVQAGGSLRLRCAASGRIFGYNDMGWYRQAPGKERELVAAINWTGGSTYYADSVKARFTISRDNSKNTVYLQMNSLKPEDTAVYYCNADARTKWVQTHTDFISDYDYWGQGTQVTVSS : low polyreactivity
QVQLVESGGGLVQAGGSLRLSCAASGFNFDANPLGWYRQAAGKERELVAAISWSGGSTYYADSVKGRFTISRDYANNSVYLQMNTLKPEDTAVYYCAADILGYSYEYWGQGTQVTVSS : high polyreactivity
QVQLVESGGGLVQAGGSLRLSCAASGRTFPGYAMGWYRQAPGKERELVAAISSSGGSTYYADSVKGRFTISRDNAKNTVYLQMNSLKPEDTAVYYCNAAYRGRLYSWRYGYDYWGQGTQVTVSS : high polyreactivity
QVQLVESGGGLVQAGGSLRLSCAASGSTFFGNAMGWYRQAPGKERELVAAITSGGSTNYADSVKGRFTISRDNAKNTVYFQMNSLKPEDTAVYYCAKPSRWGWTGFYAYDYWGQGTQVTVSS : low polyreactivity
QVQLQVSGGDLVQAGGSLRLSCAASGTIYGLISMGWYRQAPGKEREFVAAITDGGNTNYADSVKGRFTISRDNAKYTVYLQMISLKPEDTAVYYCAVLFSDDAYYAYWGQGTQVTVSS : low polyreactivity
QVQLVESGGGLVQAGGSLRLSCAASGFNFSYYAMGWYRHAPGKEWELVAAISRSGGSTYYADSVKGRFTISRDNAKNTVYLQMNSLKPEDTAVYYCAKRIKDRSGEAYVGLYYWGQGTQVTVSS : high polyreactivity

## Task Request the reported polyreactivity (PSR sort gate) associated with QVQLVESGGGLVQAGGSLRLSCAASGFTFHWYVMGWYRQAPGKERELVAAISRNGGRTYYADSVKGRFTISRDNAKNTVYLQMNSLKPEDTAVYYCATDYGWLYINSIWEYDYWGQGTQVTVSS
## Result high polyreactivity

## Task So what does the record say about polyreactivity (PSR sort gate) for QVQLVESGGGLVQAGGSLRLSCAASGFIFNRNAMGWYRQAPGKERELVAGINSGGTTKYADSVKGRFTISRDNAKNTVYLQMISLIPEDTAVYYCAKPLNYRYYVGYPLDYWGQGTQVTVSS ?
## Result low polyreactivity

## Task Data request, read-out polyreactivity (PSR sort gate), for QVQLVESGGGLVQAGGSLRLSCAASGIIFRYYAMGWYRQAPGKERELVAAISSSTGNTYYADSVKGRFTISRDNAKNTVYLQMNSLKPEDTAVYYCAARTRQISIVGYNYWGQGTQVTVSS
## Result high polyreactivity

## Task Please give the measured polyreactivity (PSR sort gate) for this sequence: QVQLVESGGALVQARGSLRLSCSASGSTFFHNFKGWYRQEPGKERELVAAISGSGTRSYYADSVKGRFTISRDNAKNTVYLQMNSLKPEDTAVYYCNVVPLRVPSYLPKYYYWGQGTQVTVSS
## Result high polyreactivity

## Task Quick check: polyreactivity (PSR sort gate) of QVQLVESGGGLVQAGGSLRLSCAASGSTLYSYAMGWYRQAPGKERELVAAISIGDSTNYADSVKGRFTISRDNAKNTVYLQMNSLKPVDTAVYYCAADWDESYSYRRYRHYDYWGQGTQVSVSS ?
## Result low polyreactivity
